Biological target: truncated PI3Kα (p110α/iSH2 p85α) (Homo sapiens (Human))
Sequence (P42336 whole entry, the tested form may be a part): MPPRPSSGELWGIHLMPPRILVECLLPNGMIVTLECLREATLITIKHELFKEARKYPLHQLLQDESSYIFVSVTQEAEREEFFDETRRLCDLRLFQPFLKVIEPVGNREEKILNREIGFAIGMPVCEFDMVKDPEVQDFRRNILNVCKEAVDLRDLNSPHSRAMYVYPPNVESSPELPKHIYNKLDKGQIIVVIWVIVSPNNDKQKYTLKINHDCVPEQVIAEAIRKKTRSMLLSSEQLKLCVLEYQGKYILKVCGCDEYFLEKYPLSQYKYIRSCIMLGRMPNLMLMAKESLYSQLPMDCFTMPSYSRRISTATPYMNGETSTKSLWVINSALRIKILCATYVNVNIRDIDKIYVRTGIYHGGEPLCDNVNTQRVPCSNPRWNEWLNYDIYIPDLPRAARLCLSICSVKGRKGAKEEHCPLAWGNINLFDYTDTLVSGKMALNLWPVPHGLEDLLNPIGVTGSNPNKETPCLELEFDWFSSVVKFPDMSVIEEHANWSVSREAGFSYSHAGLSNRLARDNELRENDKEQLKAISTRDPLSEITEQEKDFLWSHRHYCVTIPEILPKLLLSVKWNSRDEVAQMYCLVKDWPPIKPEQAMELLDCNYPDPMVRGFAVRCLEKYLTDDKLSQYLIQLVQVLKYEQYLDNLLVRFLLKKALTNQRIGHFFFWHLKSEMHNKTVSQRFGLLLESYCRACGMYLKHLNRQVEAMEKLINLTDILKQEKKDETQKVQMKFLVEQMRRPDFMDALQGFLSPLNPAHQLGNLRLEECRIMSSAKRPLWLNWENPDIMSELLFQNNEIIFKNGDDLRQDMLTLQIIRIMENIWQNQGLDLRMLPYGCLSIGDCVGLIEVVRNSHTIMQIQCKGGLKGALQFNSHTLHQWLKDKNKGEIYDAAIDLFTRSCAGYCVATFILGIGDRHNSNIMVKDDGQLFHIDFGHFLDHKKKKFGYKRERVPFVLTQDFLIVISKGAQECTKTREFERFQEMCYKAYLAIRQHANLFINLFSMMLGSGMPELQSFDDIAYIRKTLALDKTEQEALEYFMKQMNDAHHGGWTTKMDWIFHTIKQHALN
Test: PI3KA_Act fluorescence polarization kinase assay (Ki)
Assay type: biochemical
Details: 1 mM ATP
Readout type: PI3KA_Act Ki (nM)
Record the value in nM, omitting the unit from your answer.

INSERT INTO measurements (compound, target, readout_type, reported_result) VALUES
  ('Nc1ncc(-c2nc(N3CCOCC3)nc3c2CCN3C2CN(S(N)(=O)=O)C2)cn1', 'truncated PI3Kα (p110α/iSH2 p85α) (Homo sapiens (Human))', 'PI3KA_Act Ki', 0.129),
  ('CC(C(=O)N1CC[C@](C)(N2CCc3c(-c4cnc(N)nc4)nc(N4CCOCC4)nc32)C1)N(C)C (stereo partly shown)', 'truncated PI3Kα (p110α/iSH2 p85α) (Homo sapiens (Human))', 'PI3KA_Act Ki', 0.038);

// lookup PI3KA_Act Ki | system=truncated PI3Kα (p110α/iSH2 p85α) (Homo sapiens (Human)) | key= Nc1ncc(-c2nc(N3CCOCC3)nc3c2CCN3C2CN(S(=O)(=O)N3CCC3)C2)cn1
0.158
